The measured values listed here are drawn from paper PMC7961048.

# tested system: 14-3-3τ (Homo sapiens)
# Construct: cDNAs encoding other full-length 14-3-3 isoforms β, τ, η, and σ were obtained as codon-optimized
# Sequence (P27348 whole entry, canonical isoform): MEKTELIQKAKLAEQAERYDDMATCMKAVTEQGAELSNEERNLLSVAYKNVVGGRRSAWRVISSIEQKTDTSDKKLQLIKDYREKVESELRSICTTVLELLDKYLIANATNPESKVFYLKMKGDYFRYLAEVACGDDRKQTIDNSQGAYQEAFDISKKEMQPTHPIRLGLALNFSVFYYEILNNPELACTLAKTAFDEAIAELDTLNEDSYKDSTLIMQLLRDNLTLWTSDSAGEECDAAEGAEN
# assay method text: biochemical
Starred links: 1 amine or outer side, 2 acyl side, 3 side chain; linkers in the order of their positions; H or OH if unused. Non-standard residues stand in square brackets, D forms with d. Residues, ends and D or L forms follow the SMILES beside them. *: point of attachment. X1 = O=C(CCCC[C@@H]1SC[C@@H]2NC(=O)N[C@@H]21)NCCCOCCOCCOCCCN*; pT = C[C@@H](OP(=O)(O)O)[C@H](N)C(=O)O; Suc = O=C(CCC(=O)[*:2])[*:1]
assay readout: pKd
Interpret pKd as the negative base-10 log of the concentration measured in mol/L.

compound: CC(C)[C@H](NC(=O)[C@H](CCC(=O)O)NC(=O)[C@@H](NC(=O)[C@H](CCC(=O)O)NC(=O)[C@H](CCCNC(=N)N)NC(=O)[C@H](CCCNC(=N)N)NC(=O)[C@@H](NC(=O)[C@@H]1CCCN1C(=O)[C@H](CCCCN)NC(=O)[C@H](CO)NC(=O)CCC(=O)NCCCOCCOCCOCCCNC(=O)CCCC[C@@H]1SC[C@@H]2NC(=O)N[C@@H]21)[C@@H](C)O)[C@@H](C)OP(=O)(O)O)C(=O)O [pHPV35E6] ({X1-Suc}-SKPTRRE[pT]EV-OH)
tested system: 14-3-3τ (Homo sapiens)
measurement: 3.63
//
compound: CC(C)[C@H](NC(=O)[C@H](C)NC(=O)[C@@H](NC(=O)[C@H](CCC(=O)O)NC(=O)[C@H](CCCNC(=N)N)NC(=O)[C@H](CCCNC(=N)N)NC(=O)[C@H](CCCNC(=N)N)NC(=O)[C@@H]1CCCN1C(=O)[C@H](CCCCN)NC(=O)[C@H](CO)NC(=O)CCC(=O)NCCCOCCOCCOCCCNC(=O)CCCC[C@@H]1SC[C@@H]2NC(=O)N[C@@H]21)[C@@H](C)OP(=O)(O)O)C(=O)O [pHPV35E6T-6R, E-1A] ({X1-Suc}-SKPRRRE[pT]AV-OH)
tested system: 14-3-3τ (Homo sapiens)
measurement: 5.24
//
compound: CC(C)[C@H](NC(=O)[C@H](CCC(=O)O)NC(=O)[C@@H](NC(=O)[C@H](CCC(=O)O)NC(=O)[C@H](CCCNC(=N)N)NC(=O)[C@H](CCCNC(=N)N)NC(=O)[C@H](CCCNC(=N)N)NC(=O)[C@@H]1CCCN1C(=O)[C@H](CCCCN)NC(=O)[C@H](CO)NC(=O)CCC(=O)NCCCOCCOCCOCCCNC(=O)CCCC[C@@H]1SC[C@@H]2NC(=O)N[C@@H]21)[C@@H](C)OP(=O)(O)O)C(=O)O [pHPV35E6T-6R] ({X1-Suc}-SKPRRRE[pT]EV-OH)
tested system: 14-3-3τ (Homo sapiens)
measurement: 3.71
//
compound: CC(C)C[C@H](NC(=O)[C@H](CCC(N)=O)NC(=O)[C@@H](NC(=O)[C@H](CCC(=O)O)NC(=O)[C@H](CCCNC(=N)N)NC(=O)[C@H](CCCNC(=N)N)NC(=O)[C@@H](NC(=O)[C@H](CCCNC(=N)N)NC(=O)[C@H](CO)NC(=O)[C@H](CO)NC(=O)CCC(=O)NCCCOCCOCCOCCCNC(=O)CCCC[C@@H]1SC[C@@H]2NC(=O)N[C@@H]21)[C@@H](C)O)[C@@H](C)OP(=O)(O)O)C(=O)O
tested system: 14-3-3τ (Homo sapiens)
measurement: 3.84
//
compound: CC(C)[C@H](NC(=O)[C@H](C)NC(=O)[C@@H](NC(=O)[C@H](CCC(=O)O)NC(=O)[C@H](CCCNC(=N)N)NC(=O)[C@H](CCCNC(=N)N)NC(=O)[C@@H](NC(=O)[C@@H]1CCCN1C(=O)[C@H](CCCCN)NC(=O)[C@H](CO)NC(=O)CCC(=O)NCCCOCCOCCOCCCNC(=O)CCCC[C@@H]1SC[C@@H]2NC(=O)N[C@@H]21)[C@@H](C)O)[C@@H](C)OP(=O)(O)O)C(=O)O [pHPV35E6E-1A] ({X1-Suc}-SKPTRRE[pT]AV-OH)
tested system: 14-3-3τ (Homo sapiens)
measurement: 4.67

Problem: Fill in pKd for record CC(C)C[C@H](NC(=O)[C@H](C)NC(=O)[C@@H](NC(=O)[C@H](CCC(=O)O)NC(=O)[C@H](CCCNC(=N)N)NC(=O)[C@H](CCCNC(=N)N)NC(=O)[C@H](CCCNC(=N)N)NC(=O)[C@H](CO)NC(=O)[C@H](CCCNC(=N)N)NC(=O)[C@H](CO)NC(=O)CCC(=O)NCCCOCCOCCOCCCNC(=O)CCCC[C@@H]1SC[C@@H]2NC(=O)N[C@@H]21)[C@@H](C)OP(=O)(O)O)C(=O)O [pHPV33E6] ({X1-Suc}-SRSRRRE[pT]AL-OH)
Solution: 5.45

Problem: Fill in pKd for record CC(C)C[C@H](NC(=O)[C@H](CCCNC(=N)N)NC(=O)CCC(=O)NCCCOCCOCCOCCCNC(=O)CCCC[C@@H]1SC[C@@H]2NC(=O)N[C@@H]21)C(=O)N[C@@H](CCC(N)=O)C(=O)N[C@@H](CCCNC(=N)N)C(=O)N[C@@H](CCCNC(=N)N)C(=O)N[C@@H](CCCNC(=N)N)C(=O)N[C@@H](CCC(=O)O)C(=O)N[C@H](C(=O)N[C@@H](CCC(N)=O)C(=O)N[C@H](C(=O)O)C(C)C)[C@@H](C)OP(=O)(O)O
Solution: 4.42
